- testProtocol: Tmax in Balb/c mouse at 20 mg/kg,po administration and measured upto 24 hrs by LC-MS/MS analysis
- Format: ADME, organism-based
- conditionContext: in vivo
attributeMeasured: Tmax (h)
Numbers only, in h.

{"columns": ["compound", "resultValue"],
 "data": [
  ["CN1CC[C@@]23c4c5ccc(O)c4O[C@@H]2C(=O)C=C[C@]3(O)[C@@H]1C5 (single isomer, unassigned)", 1.2]
]}

// next entry
Query: For COc1ccc2c3c1O[C@@H]1C(=O)C=C[C@]4(O)[C@H](C2)N(C)CC[C@@]314 (single isomer, unassigned) , what is its reported Tmax?
Reply: 1.2

* * *

- target: Toll-like receptor 4 (Mus musculus, UniProt Q9QUK6)
- Sequence (Q9QUK6 whole entry): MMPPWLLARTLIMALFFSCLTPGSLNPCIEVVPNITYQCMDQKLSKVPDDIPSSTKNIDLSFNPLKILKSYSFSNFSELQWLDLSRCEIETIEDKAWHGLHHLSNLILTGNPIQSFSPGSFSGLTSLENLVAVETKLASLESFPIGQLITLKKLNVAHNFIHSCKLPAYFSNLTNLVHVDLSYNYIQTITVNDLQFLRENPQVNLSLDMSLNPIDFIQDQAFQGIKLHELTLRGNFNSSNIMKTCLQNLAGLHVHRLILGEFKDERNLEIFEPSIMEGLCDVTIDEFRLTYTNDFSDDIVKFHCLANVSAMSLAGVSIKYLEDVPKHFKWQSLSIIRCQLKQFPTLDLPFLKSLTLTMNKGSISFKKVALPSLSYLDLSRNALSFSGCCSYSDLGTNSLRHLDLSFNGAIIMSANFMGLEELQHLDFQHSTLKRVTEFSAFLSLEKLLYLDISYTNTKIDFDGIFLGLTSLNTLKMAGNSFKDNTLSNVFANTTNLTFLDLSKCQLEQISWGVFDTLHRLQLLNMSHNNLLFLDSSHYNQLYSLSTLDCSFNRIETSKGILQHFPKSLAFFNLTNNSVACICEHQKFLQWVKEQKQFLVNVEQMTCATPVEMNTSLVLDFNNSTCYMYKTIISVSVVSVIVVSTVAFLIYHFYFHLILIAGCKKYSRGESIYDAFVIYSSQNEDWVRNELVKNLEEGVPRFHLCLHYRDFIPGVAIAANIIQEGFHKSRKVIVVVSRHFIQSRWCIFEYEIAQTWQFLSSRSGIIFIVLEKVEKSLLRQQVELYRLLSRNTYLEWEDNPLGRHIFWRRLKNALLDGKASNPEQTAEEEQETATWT
- testProtocol: Antagonist activity at TLR4 in mouse BV-2 cells assessed as inhibition of LPS-induced TNF-alpha production by ELISA
- Type: cell-based
attributeMeasured: IC50 (µM)
Answers are plain numbers, in µM.

{"columns": ["compound", "target", "attributeMeasured", "resultValue"],
 "data": [
  ["COc1ccc2c3c1O[C@@H]1C(=O)C=C[C@]4(O)[C@H](C2)N(C)CC[C@@]314 (single isomer, unassigned)", "Toll-like receptor 4 (Mus musculus, UniProt Q9QUK6)", "IC50", 4.2]
]}

// next entry
Query: For CN1CC[C@@]23c4c5ccc(O)c4O[C@@H]2C(=O)C=C[C@]3(O)[C@@H]1C5 (single isomer, unassigned) , what is its reported IC50?
Reply: 2.3

* * *

- testProtocol: AUC (0 to infinity) in Balb/c mouse at 20 mg/kg,po administration and measured upto 24 hrs by LC-MS/MS analysis
- Format: ADME, organism-based
- conditionContext: in vivo
attributeMeasured: AUC(0-inf) (ng·h/mL)
Numbers only, in ng·h/mL.

{"columns": ["molecule", "resultValue"],
 "data": [
  ["CN1CC[C@@]23c4c5ccc(O)c4O[C@@H]2C(=O)C=C[C@]3(O)[C@@H]1C5 (single isomer, unassigned)", 295]
]}

// next entry
Query: For COc1ccc2c3c1O[C@@H]1C(=O)C=C[C@]4(O)[C@H](C2)N(C)CC[C@@]314 (single isomer, unassigned) , what is its reported AUC(0-inf)?
Reply: 89.6

* * *

Assign Vd to each entry below.
- testProtocol: Volume of distribution at steady state in Balb/c mouse at 2 mg/kg,iv administration and measured upto 24 hrs by LC-MS/MS analysis
- Format: ADME, organism-based
- conditionContext: in vivo, read-out: Vdss
Give bare numbers, in L/kg.

{"columns": ["compound", "Vd / L/kg"],
 "data": [
  ["COc1ccc2c3c1O[C@@H]1C(=O)C=C[C@]4(O)[C@H](C2)N(C)CC[C@@]314 (single isomer, unassigned)", 97]
]}

Query: For CN1CC[C@@]23c4c5ccc(O)c4O[C@@H]2C(=O)C=C[C@]3(O)[C@@H]1C5 (single isomer, unassigned) , what is its reported Vd?
Reply: 75.5

* * *

Assign AUC(0-inf) to each entry below.
- testProtocol: AUC (0 to infinity) in Balb/c mouse at 2 mg/kg,iv administration and measured upto 24 hrs by LC-MS/MS analysis
- Assay type: ADME, organism-based
- conditionContext: in vivo

{"columns": ["compound", "resultValue"],
 "data": [
  ["COc1ccc2c3c1O[C@@H]1C(=O)C=C[C@]4(O)[C@H](C2)N(C)CC[C@@]314 (single isomer, unassigned)", "16.5 ng·h/mL"]
]}

Query: For CN1CC[C@@]23c4c5ccc(O)c4O[C@@H]2C(=O)C=C[C@]3(O)[C@@H]1C5 (single isomer, unassigned) , what is its reported AUC(0-inf)?
Reply: 71.8 ng·h/mL

* * *

- testProtocol: Oral bioavailability in Balb/c mouse at 20 mg/kg administration and measured upto 24 hrs by LC-MS/MS analysis
- Type: ADME, organism-based
- conditionContext: in vivo
Assign bioavailability to each entry below.
Give bare numbers, in %.

{"columns": ["compound", "bioavailability / %"],
 "data": [
  ["COc1ccc2c3c1O[C@@H]1C(=O)C=C[C@]4(O)[C@H](C2)N(C)CC[C@@]314 (single isomer, unassigned)", 54.3]
]}

// next entry
Query: For CN1CC[C@@]23c4c5ccc(O)c4O[C@@H]2C(=O)C=C[C@]3(O)[C@@H]1C5 (single isomer, unassigned) , what is its reported bioavailability?
Reply: 41.1

* * *

- testProtocol: Half life in Balb/c mouse at 2 mg/kg,iv administration and measured upto 24 hrs by LC-MS/MS analysis
- Format: ADME, organism-based
- conditionContext: in vivo
attributeMeasured: half-life (h)
Numbers only, in h.

The following compounds each have a reported value; give each one's half-life.
1. COc1ccc2c3c1O[C@@H]1C(=O)C=C[C@]4(O)[C@H](C2)N(C)CC[C@@]314 (single isomer, unassigned)
2. CN1CC[C@@]23c4c5ccc(O)c4O[C@@H]2C(=O)C=C[C@]3(O)[C@@H]1C5 (single isomer, unassigned)

Reply:
1. 0.6
2. 2.2

* * *

Assign Cmax to each entry below.
- testProtocol: Cmax in Balb/c mouse at 20 mg/kg,po administration and measured upto 24 hrs by LC-MS/MS analysis
- Type: ADME, organism-based
- conditionContext: in vivo
Numbers only, in ng/mL.

{"columns": ["compound", "resultValue"],
 "data": [
  ["CN1CC[C@@]23c4c5ccc(O)c4O[C@@H]2C(=O)C=C[C@]3(O)[C@@H]1C5 (single isomer, unassigned)", 51.5]
]}

// next entry
Query: For COc1ccc2c3c1O[C@@H]1C(=O)C=C[C@]4(O)[C@H](C2)N(C)CC[C@@]314 (single isomer, unassigned) , what is its reported Cmax?
Reply: 25

* * *

- target: Toll-like receptor 4 (Mus musculus, UniProt Q9QUK6)
- testProtocol: Antagonist activity at TLR4 in mouse BV-2 cells assessed as inhibition of LPS-induced NO overproduction incubated for 24 hrs by 2,3-diaminonaphthalene reagent based microplate reader analysis
- Type: cell-based
pIC50: −log10 of the molar value.
Criterion: pIC50 meeting or surpassing 5. Met: 1. Not met: 0.

Some solved cases for reference:
{"columns": ["compound", "assignedLabel"],
 "data": [
  ["CN1CC[C@@]23c4c5ccc(O)c4O[C@@H]2C(=O)CC[C@]3(O)[C@@H]1C5", 0],
  ["COc1ccc2c3c1O[C@@H]1C(=O)CC[C@@H]4[C@H](C2)N(C)CC[C@@]314", 0],
  ["COc1ccc2c(c1O)[C@@]13CCN(C)[C@@H](C2)[C@H]1CC(OC)C(=O)C3 (stereo not given in full)", 0]
]}

Query: Is pIC50 for COc1ccc2c3c1O[C@@H]1C(OC)(OC)C(Br)C[C@@H]4[C@H](C2)N(C)CC[C@]341 (stereo not given in full) at or above 5?
Reply: 0

Query: Is pIC50 for `COC1=CC=C2[C@@H]3Cc4ccc(OC)c5c4[C@]2(CCN3C)[C@@H]1O5` at or above 5?
Reply: 0

Query: Is pIC50 for `COc1ccc2c3c1O[C@@H]1C(=O)CC[C@]4(OC(C)=O)[C@H](C2)N(C#N)CC[C@@]314` at or above 5?
Reply: 0

Query: Is pIC50 for COc1ccc2c3c1O[C@@H]1C(=O)CC[C@]4(O)[C@H](C2)N(C)CC[C@@]314 (single isomer, unassigned) at or above 5?
Reply: 0

Query: Is pIC50 for CN1CC[C@@]23c4c5ccc(O)c4O[C@@H]2C(=O)C=C[C@]3(O)[C@@H]1C5 (single isomer, unassigned) at or above 5?
Reply: 1

Query: Is pIC50 for `COc1ccc2c3c1O[C@@H]1C(=O)CC[C@]4(OC(C)=O)[C@H](C2)N(C)CC[C@@]314` at or above 5?
Reply: 0

* * *

- target: Toll-like receptor 4 (Mus musculus, UniProt Q9QUK6)
- testProtocol: Antagonist activity at TLR4 in mouse BV-2 cells assessed as inhibition of LPS-induced NO overproduction incubated for 24 hrs by 2,3-diaminonaphthalene reagent based microplate reader analysis
- Type: cell-based
Assign IC50 to each entry below.

{"columns": ["compound", "resultValue"],
 "data": [
  ["COC1=CC[C@@H]2[C@@H]3Cc4ccc(OC)c5c4[C@]2(CCN3C)[C@@H]1O5", "> 200 µM"],
  ["COc1ccc2c3c1O[C@@H]1C(=O)C=C[C@]4(O)[C@H](C2)N(C)CC[C@@]314 (single isomer, unassigned)", "1.3 µM"]
]}

The following compounds each have a reported value; give each one's IC50.
1. COc1ccc2c3c1O[C@@H]1C(=O)C=C[C@@H]4[C@H](C2)N(C)CC[C@@]314
2. COc1ccc2c3c1O[C@@H]1C(OC)(OC)CC[C@@H]4[C@H](C2)N(C)CC[C@]341

Reply:
6.9 µM
> 200 µM

The following compounds each have a reported value; give each one's IC50.
1. COc1ccc2c3c1O[C@@H]1C(=O)CC[C@]4(O)[C@H](C2)NCC[C@@]314
2. COC1=C[C@@H]2[C@@H]3Cc4ccc(OC)c(O)c4[C@]2(CCN3C)CC1=O

Reply:
1: > 200 µM; 2: > 200 µM
